# assayRemarks: in vitro
# assaySetup: human, hela cells, % viability
recordedEndpoint: viability at 28.5 h, 10 µM

Sample answers from the record:
>  <compound>
O=[N+]([O-])c1ccc(OCCCNCCO)cc1

>  <viability at 28.5 h, 10 µM>
92.3%

$$$$
>  <compound>
COc1ccc(NC(=O)C(OC)c2ccccc2)cc1Cl (stereo not shown)

>  <viability at 28.5 h, 10 µM>
95.2%

$$$$
>  <compound>
COCCNc1nc(-c2cccc(N(C)C)c2)ccc1C(=O)NCCc1ccccn1

>  <viability at 28.5 h, 10 µM>
90.7%

$$$$

stdin: Quick check: viability at 28.5 h, 10 µM of COc1ccc(CC(C(=O)O)C(=O)O)cc1OC ?
stdout: 95.9%

stdin: Quick check: viability at 28.5 h, 10 µM of CC(C)(CNC(=O)Cn1cccc(C(=O)NC2CCCCC2)c1=O)c1ccccc1F ?
stdout: 89.6%

---

// reported viability at 28.5 h, 10 µM for each item listed
# assayRemarks: in vitro
# assaySetup: human, hela cells, % viability
Unit % implied. Number only.

>  <cpdSmiles>
O=C1/C(=C/c2ccc(OCc3cccc([N+](=O)[O-])c3)cc2)SC(=S)N1CCc1ccccc1

>  <viability at 28.5 h, 10 µM, %>
92.6

$$$$
>  <cpdSmiles>
O=C(O)c1sccc1NS(=O)(=O)Cc1ccccc1

>  <viability at 28.5 h, 10 µM, %>
92.3

$$$$

stdin: Quick check: viability at 28.5 h, 10 µM of CN(C)CCCNC(=O)COc1ccccc1 ?
stdout: 88

stdin: Quick check: viability at 28.5 h, 10 µM of O=C(Nc1ccc(S(=O)(=O)N2CCCCC2)cc1)c1ccc(NS(=O)(=O)c2ccccc2)cc1 ?
stdout: 88.3

---

// reported viability at 28.5 h, 10 µM for each item listed
# assayRemarks: in vitro
# assaySetup: human, hela cells, % viability
Unit % implied. Number only.

Sample answers from the record:
>  <molecule>
CC(C)C(=O)N1CC2(CCN(CCc3cccc4ccccc34)CC2)c2ccccc21

>  <unitAbbreviation>
%

>  <viability at 28.5 h, 10 µM>
101

$$$$
>  <molecule>
CC(C)CN(CCc1ccc(O)cc1)CC(=O)NC1(c2ccccc2)CCC1 [CBK067781T]

>  <unitAbbreviation>
%

>  <viability at 28.5 h, 10 µM>
100

$$$$
>  <molecule>
CC(=O)N1CCC[C@H]2NC(=O)CNC(=O)C3(C/C=C/C[C@H]21)CCN(c1ncccn1)CC3

>  <unitAbbreviation>
%

>  <viability at 28.5 h, 10 µM>
110

$$$$
>  <molecule>
CC(C)(C)OC(=O)N1CCN(Cc2nc(-c3ccccc3)no2)CC1

>  <unitAbbreviation>
%

>  <viability at 28.5 h, 10 µM>
99.8

$$$$

stdin: Quick check: viability at 28.5 h, 10 µM of CC(C)(Cc1ccccc1)NCC(O)COc1ccc2c(c1)C1CCC2C1 (stereo not drawn) [CBK018228C] ?
stdout: 86.4

stdin: Quick check: viability at 28.5 h, 10 µM of COc1cccc(NCc2nnc(SCC(=O)O)n2C2CCCCC2)c1 ?
stdout: 95.6

stdin: Quick check: viability at 28.5 h, 10 µM of O=C(Cn1nnc(-c2ccccc2Cl)n1)N/N=C/c1cn(Cc2ccc(Cl)cc2)c2ccccc12 ?
stdout: 107
